# System: Liver microsomes
# assayRemarks: Metabolic stability in human liver microsomes assessed as half life by LC-MS analysis
# Type: ADME, Microsome
readoutName: t1/2 (min)
State just the number; it will be interpreted in min.

>>> observedvalue("c1cncc(CN2CCN(c3ccc(-c4nc5ccccc5o4)cc3)CC2)c1")
50.2
>>> observedvalue("c1cncc(CN2CCN(c3ccc(-c4nc5ccccc5s4)cc3)CC2)c1")
34.3

Turning to the following compound.
GET t1/2 where system = Liver microsomes and item = Fc1ccc(CN2CCN(c3ccc(-c4nc5ccccc5o4)cc3)CC2)cn1
43.6

* * *

# assayRemarks: Cmax in wild type FVB mouse plasma at 10 mg/kg, po by LC-MS analysis
# Assay type: ADME, organism-based
# Set-up: dose 10 mg/kg, route oral
# conditionContext: FVB, plasma
readoutName: Cmax (nM)
State just the number; it will be interpreted in nM.

>>> observedvalue("COc1ccc(CN2CCN(c3ccc(-c4nc5ccccc5o4)cc3)CC2)cn1")
700

Turning to the following compound.
Specify measured Cmax for c1cncc(CN2CCN(c3ccc(-c4nc5ccccc5o4)cc3)CC2)c1 .
900
